These data points were gathered from paper PMC5431176.

- experimental_target: BtsS (YehU) (Escherichia coli)
- Sequence (P0AD14 whole entry): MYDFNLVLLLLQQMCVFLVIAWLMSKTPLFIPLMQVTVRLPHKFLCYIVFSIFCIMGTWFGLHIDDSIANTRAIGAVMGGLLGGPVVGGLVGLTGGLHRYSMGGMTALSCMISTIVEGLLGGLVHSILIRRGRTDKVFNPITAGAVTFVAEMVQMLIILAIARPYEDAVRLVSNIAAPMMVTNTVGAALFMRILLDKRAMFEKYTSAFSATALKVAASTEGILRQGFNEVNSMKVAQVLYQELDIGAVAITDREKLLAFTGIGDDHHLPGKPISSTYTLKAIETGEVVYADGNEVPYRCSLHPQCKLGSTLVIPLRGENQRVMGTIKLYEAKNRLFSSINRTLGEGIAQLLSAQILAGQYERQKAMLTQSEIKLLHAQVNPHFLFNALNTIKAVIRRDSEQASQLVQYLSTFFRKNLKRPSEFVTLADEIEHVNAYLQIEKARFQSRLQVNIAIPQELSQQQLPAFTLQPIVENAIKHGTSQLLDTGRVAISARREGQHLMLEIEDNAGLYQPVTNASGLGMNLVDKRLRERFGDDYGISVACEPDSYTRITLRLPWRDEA
experimental_readout: Kd (µM)
Lab book: enter the figure in µM, no units written.

System BtsS (YehU) (Escherichia coli). Read-out Kd. Item CC(=O)C(=O)O [pyruvate] . Report value.
58.6
